Biological target: T1, Prostate specific membrane antigen (PSMA) (UniProt Q04609 1-750, limits assumed)
T1 construct: whole, on cells
T1 sequence (Q04609 whole entry): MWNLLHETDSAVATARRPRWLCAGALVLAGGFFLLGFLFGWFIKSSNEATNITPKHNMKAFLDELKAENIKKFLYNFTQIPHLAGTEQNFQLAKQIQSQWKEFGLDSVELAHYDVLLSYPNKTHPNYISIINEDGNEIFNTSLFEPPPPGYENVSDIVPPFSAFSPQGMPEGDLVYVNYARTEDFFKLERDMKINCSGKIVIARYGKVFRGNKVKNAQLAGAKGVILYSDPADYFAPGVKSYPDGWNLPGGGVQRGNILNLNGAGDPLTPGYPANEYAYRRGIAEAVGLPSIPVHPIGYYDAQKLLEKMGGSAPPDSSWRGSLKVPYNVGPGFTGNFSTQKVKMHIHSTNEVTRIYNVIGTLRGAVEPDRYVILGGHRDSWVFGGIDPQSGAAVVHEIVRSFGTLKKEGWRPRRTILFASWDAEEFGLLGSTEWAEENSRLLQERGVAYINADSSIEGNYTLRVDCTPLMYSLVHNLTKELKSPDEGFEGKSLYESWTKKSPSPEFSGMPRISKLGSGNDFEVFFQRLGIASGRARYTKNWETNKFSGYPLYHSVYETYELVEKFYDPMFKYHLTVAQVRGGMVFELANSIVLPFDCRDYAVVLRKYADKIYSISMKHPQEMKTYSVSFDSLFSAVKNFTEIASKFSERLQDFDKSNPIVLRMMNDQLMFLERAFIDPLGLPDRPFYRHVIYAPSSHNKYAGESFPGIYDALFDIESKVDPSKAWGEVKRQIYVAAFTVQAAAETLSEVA
Test: competitive binding on LNCaP or PC3-PIP cells; displacement of 12 nM N-[N-[(S)-1,3-dicarboxypropyl]carbamoyl]-S-[3H]-methyl-L-cysteine, scintillation counting
pIC50: −log10 of the molar value. Primed or numbered codes have the meaning given here. Where no end group is shown, it is not given here. [ ]: non-standard residue; d: D form. The star is where a group is joined. MCC = 4-(N-maleimidomethyl)cyclohexane-1-carbonyl, from SMCC, O=C1C=CC(=O)N1C[C@H]1CC[C@H](C(=O)*)CC1; NOTA(2S-Bn(4-NHCS)) = O=C(O)CN1CCN(CC(=O)O)C[C@H](Cc2ccc(NC(=S)*)cc2)N(CC(=O)O)CC1; Amc = N-aminomethyl cyclohexanoic acid; ZJ = urea ligand Cys-C(O)-Glu; Ahx = NCCCCCC(=O)O; E′E = Glu-urea-Glu
Property: pIC50; scope: individual binders
MEASURE NAME: pIC50

BINDER | MEASURE NAME | REPORTED
{ZJ-MCC}-[Ahx]YYYG (Synthetic urea-ligand peptide conjugate, unlabelled) [ZJ-MCC-Ahx-YYYG (Compound 2)] | pIC50 | 8.60
{E′E-Amc}-[Ahx][dE][dE][dE]YK(NOTA(2S-Bn(4-NHCS)))-NH2 (Tested unlabelled; also called E′EAmc-Ahx-dGlu-dGlu-dGlu-Tyr-Lys(Bn-NOTA)-NH2) [E′EAmc-Ahx-dEdEdEYK(Bn-NOTA)-NH2 (Compound 4)] | pIC50 | 8.34
{E′E-Amc}-[Ahx][dE][dE][dE]GYGGGC-NH2 [E′EAmc-Ahx-dEdEdEGYGGGC-NH2 (Compound 3)] | pIC50 | 8.15
{E′E}-[Ahx]EEEYK(NOTA(2S-Bn(4-NHCS)))-NH2 (Tested unlabelled; also called E′E-Ahx-Glu-Glu-Glu-Tyr-Lys(Bn-NOTA)-NH2) [E′E-Ahx-EEEYK(Bn-NOTA)-NH2 (Compound 5)] | pIC50 | 8.37
